Documented cell viability across a set of molecules
Test system: DLD1
Test: cell viability (CellTiter-Glo) relative to plate median (fraction of plate median); higher = more viable cells
Details: 5 µM; treatment time 24 h; reporter: 7TFP
OBSERVATION_TYPE: cell viability

                                   molecule  quantitative_readout
0  CCCCCc1c2c(cc(O)c1C(=O)O)OC(=O)c1c(cc(OC)cc1C(=O)CCCC)O2                 0.958
1  C=C(C)[C@@H]1CC[C@]2(C(=O)O)CC[C@]3(C)[C@H](C[C@H]4OC(=O)C[C@@H](O)[C@]5(C)[C@@H]4[C@@]3(C)CC[C@H]5C(=C)C)[C@@H]12                 0.995
2                        Nc1[nH]cnc2ncnc1-2                   1.2
3         O=c1c(O)c(-c2ccccc2)oc2cc(O)ccc12                     1
4  C=CC(C1=CC(=O)C(OC)=CC1=O)c1ccc(OC)cc1 (stereo unspecified)                  1.06
5  CC(=O)NCCc1ccc(O)cc1 [N-(p-Hydroxyphenyl)ethylacetamide]                  1.02

All figures here come from the supplement of paper PMC6522484.
